- assay_protocol: Vapor pressure by the gas flow method (OECD guideline)
- Assay type: physicochemical
- experimental_parameters: head: 20° C.; text: gas flow method at 25° C.
Vapor pressure (20° C.) (Pa) by entry:
Your answer is read as Pa, so omit the unit and give the number.

Observe how each entry below is paired with its result.
CCCCCC/C=C\CCC(=O)CCCCCCCCC
0.005
C=CCCCCCCCCCCOC(C)=O [11-dodecenyl acetate]
0.246

# Vapor pressure (20° C.) (Pa) lookup, item CCC/C=C\CCCCCCCOC(C)=O [Z-8-dodecenyl acetate]
0.267

Now consider CC/C=C\CCCCCCCCOC(C)=O [Z-9-dodecenyl acetate] .
0.267

Now consider CC/C=C\CCCCCCCCCCOC(C)=O [Z-11-tetradecenyl acetate] .
0.100

###

Vapor pressure (20° C.) (Pa) by entry:
- assay_protocol: Vapor pressure by the gas flow method (OECD guideline)
- Type: physicochemical
- experimental_parameters: head: 20° C.; text: gas flow method at 25° C.
Your answer is read as Pa, so omit the unit and give the number.

Observe how each entry below is paired with its result.
CCC/C=C\CCCCCCCO [Z-8-dodecene-1-ol]
0.980
CC/C=C\CCCCCCCCCCO [Z-11-tetradecene-1-ol]
0.070
CCCC/C=C\CCCCCCCCOC(C)=O [Z-9-tetradecenyl acetate]
0.100

# Vapor pressure (20° C.) (Pa) lookup, item CCC(C)CCCCCCCCCOC(C)=O (stereo not shown) [10-methyldodecyl acetate]
0.186

Reference source for all entries: patent US8834910B2
